Tested on: CHO cell line
Assay: cells
Settings: Cricetulus griseus, 24 h
MEASUREMENT TYPE: IC50 (µg/mL)
Numbers only, in µg/mL.

C[C@@H]1O[C@@H](Oc2c(-c3ccc(O)c(O)c3)oc3cc(O)cc(O)c3c2=O)[C@H](O)[C@H](O)[C@H]1O [Quercetrin, reference compound]
234
O=c1oc2c(O)c(O)cc3c(=O)oc4c(O)c(O)cc1c4c23 [Ellagic acid]
116
C[C@@H]1O[C@@H](OC[C@H]2O[C@@H](Oc3c(-c4ccc(O)c(O)c4)oc4cc(O)cc(O)c4c3=O)[C@H](O)[C@@H](O)[C@@H]2O)[C@H](O)[C@H](O)[C@H]1O [Rutin]
287
O=C(/C=C/c1ccc(O)c(O)c1)O[C@@H]1C[C@](O)(C(=O)O)C[C@@H](O)[C@H]1O [Chlorogenic acid]
398
O=C(O)c1cc(O)c(O)c(O)c1 [Gallic acid, reference compound]
103

Looking up O=C(CCc1ccc(O)cc1)c1c(O)cc(O)cc1O[C@@H]1O[C@H](CO)[C@@H](O)[C@H](O)[C@H]1O [Phloridzin] , I see its IC50 listed as 298
